The values you see were collected from paper PMC11694444.

Target: MAO-B (Homo sapiens)
Sequence (P27338 1-520): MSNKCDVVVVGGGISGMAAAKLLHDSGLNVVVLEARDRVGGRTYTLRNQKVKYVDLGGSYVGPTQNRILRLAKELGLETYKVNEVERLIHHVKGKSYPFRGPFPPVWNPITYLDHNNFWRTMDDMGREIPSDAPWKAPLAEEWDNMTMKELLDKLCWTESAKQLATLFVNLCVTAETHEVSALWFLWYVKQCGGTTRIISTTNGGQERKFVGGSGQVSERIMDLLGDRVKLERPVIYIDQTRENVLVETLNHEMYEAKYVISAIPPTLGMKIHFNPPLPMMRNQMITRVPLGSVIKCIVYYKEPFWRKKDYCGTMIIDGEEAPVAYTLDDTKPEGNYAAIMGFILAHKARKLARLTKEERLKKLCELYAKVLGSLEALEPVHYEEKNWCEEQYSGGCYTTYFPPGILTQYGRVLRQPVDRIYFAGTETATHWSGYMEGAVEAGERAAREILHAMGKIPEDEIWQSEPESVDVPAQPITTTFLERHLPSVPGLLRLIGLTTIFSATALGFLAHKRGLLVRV
reported property: pIC50
In plain terms, pIC50 is the concentration in mol/L turned into minus its base-10 logarithm.

Short answer for O=C(O)c1ccc(-n2nc(-c3ccccc3O)nc2-c2ccccc2O)cc1 [Compound 9, deferasirox, reference compound] : pIC50 was 6.74
